Target: T1, Human VSIG4-L-His (human, UniProt Q9Y279 20-283)
T1 construct: long isoform ECD with His tag; also called hVSIG4-L
T1 sequence: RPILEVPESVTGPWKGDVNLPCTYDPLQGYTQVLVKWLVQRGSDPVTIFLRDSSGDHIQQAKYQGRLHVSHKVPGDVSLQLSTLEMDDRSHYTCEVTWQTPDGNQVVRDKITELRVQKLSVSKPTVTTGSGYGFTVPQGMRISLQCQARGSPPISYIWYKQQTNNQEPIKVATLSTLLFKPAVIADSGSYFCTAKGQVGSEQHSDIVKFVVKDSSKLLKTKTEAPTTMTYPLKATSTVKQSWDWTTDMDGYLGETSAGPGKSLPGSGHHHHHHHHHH
Experiment: BLI, IgG on AHC sensor, antigen 100 nM
KD relative to parental chimera reference
READOUT KIND: KD relative to parental chimera (fold)

binder="h12A12.E humanized IgG4 (S228P) kappa (antibody, V domains shown) VH: QVQMVQSGAEVKKPGASVKVSCKASGYTFTNYWMHWVRQAPGQGLEWMGYINPSTGYTDYNQKFQGRVTMTADKSTSTAYMELSSLRSEDTAVYYCIRGSDYYGRDYWGQGTTVTVSS VL: DIQMTQSPSSLSASVGDRVTITCQASQDISNYLNWYQQKPGKAPKLLIYYTSRLHSGVPSRFSGSGSGTDYTFTISSLQPEDIATYYCRQGNTLPWTFGGGTKLEIKR" endpoint_value=0.6
binder="h14C05.H humanized IgG4 (S228P) kappa (antibody, V domains shown) VH: QVQLVQSGAEVKKPGASVKVSCKASGYTFTNYGMNWVRQAPGQGLEWMGSINTYTGEATYAQKFQGRVTMTLDTSTSTVYMELSSLRSEDTAVYYCARGDYYGRGTWFAYWGQGTLVTVSS VL: ETQVTQSPSSLSASVGDRVTITCRASQDVSTAVAWYQQKPGKAPKLLIYSASYRYPGVPSRFSGSGSGTDFTLTISSLQPEDFATYYCQQDYSSPWTFGGGTKLEIKR" endpoint_value=1
binder="14D12 mouse/human chimeric IgG4 (S228P) kappa (antibody, V domains shown) VH: QIQLVQSGPELKKPGETVKISCKASGYTFTNYGMNWVKQTPGKGLKWMGLINTYTGEPTYADDFKGRFAFSLETSASTAYLQINNLKNEDMATYFCARERIYGYLHYFDYWGQGTTLTVSS VL: DVVMTQTPASLAVSLGQRATISCKASQSVDYDGDSYMNWYQQKPGQPPKLLIYAASNLESGIPARFSGSGSGTDFTLNIHPVEEEDAATYYCQQSNEDPRTFGGGTKLEIKR" endpoint_value=1
binder="h13H11.D humanized IgG4 (S228P) kappa (antibody, V domains shown) VH: QIQLVQSGSELKKPGASVKVSCKASGYTFENFGMNWVRQAPGQGLEWMGWINTYTGEATYADGFTGRFVFSLDTSVSTAYLQISSLKAEDTAVYYCARDGGFRHFDVWGQGTTVTVSS VL: DTQVTQSPSSLSASVGDRVTITCQTSTDISNYMNWYQQKPGKAPKLLISEGNTLRPGVPSRFSSSGSGTDFTFTISSLQPEDIATYYCLQSDNLPLTFGGGTKLEIKR" endpoint_value=0.8
binder="h12A12.F humanized IgG4 (S228P) kappa (antibody, V domains shown) VH: QVQMVQSGSELKKPGASVKVSCKASGYTFTNYWMHWVRQAPGQGLEWIGYINPSTGYTDYNQGFTGRFVLSADKSSSTAYLQISSLKAEDTAVYYCIRGSDYYGRDYWGQGTTVTVSS VL: DIQMTQSPSSLSASVGDRVTITCQASQDISNYLNWYQQKPGKAPKLLIYYTSRLHSGVPSRFSGSGSGTDYTFTISSLQPEDIATYYCRQGNTLPWTFGGGTKLEIKR" endpoint_value=0.4
binder="h13H11.G humanized IgG4 (S228P) kappa (antibody, V domains shown) VH: QIQLVQSGSELKKPGASVKVSCKASGYTFENFGMNWVRQAPGQGLEWMGWINTYTGEATYADDFKGRFVFSLDTSVSTAYLQISSLKAEDTAVYYCARDGGFRHFDVWGQGTTVTVSS VL: DTQVTQSPSSLSASVGDRVTITCQTSTDIDDDMNWYQQKPGKAPKLLISEGNTLRTGVPSRFSSSGSGTDFTFTISSLQPEDIATYYCLQSDNLPLTFGGGTKLEIKR" endpoint_value=1.2
binder="h13H11.F humanized IgG4 (S228P) kappa (antibody, V domains shown) VH: QIQLVQSGSELKKPGASVKVSCKASGYTFENFGMNWVRQAPGQGLEWMGWINTYTGEATYADDFKGRFVFSLDTSVSTAYLQISSLKAEDTAVYYCARDGGFRHFDVWGQGTTVTVSS VL: ETQVTQSPSSLSASVGDRVTITCQTSTDIDDDMNWYQQKPGKAPKLLISEGNTLRPGVPSRFSSSGYGTDFTFTISSLQPEDIATYYCLQSDNLPLTFGGGTKLEIKR" endpoint_value=1.8
binder="h12A12.G humanized IgG4 (S228P) kappa (antibody, V domains shown) VH: QVQLVQSGAEVKKPGASVKVSCKASGYTFTNYWMHWVRQAPGQGLEWMGYINPSTGYTDYNQKFQGRVTMTADTSTSTVYMELSSLRSEDTAVYYCIRGSDYYGRDYWGQGTTVTVSS VL: DIQMTQSPSSLSASVGDRVTITCQASQDISNYLNWYQQKPGKAPKLLIYYTSRLHSGVPSRFSGSGSGTDYTFTISSLQPEDIATYYCRQGNTLPWTFGGGTKLEIKR" endpoint_value=0.7
binder="h13H11.C humanized IgG4 (S228P) kappa (antibody, V domains shown) VH: QIQLVQSGSELKKPGASVKVSCKASGYTFENFGMNWVRQAPGQGLEWMGWINTYTGEATYADGFTGRFVFSLDTSVSTAYLQISSLKAEDTAVYYCARDGGFRHFDVWGQGTTVTVSS VL: DTQVTQSPSSLSASVGDRVTITCQTSTDIDDDMNWYQQKPGKAPKLLISEGNTLRTGVPSRFSSSGSGTDFTFTISSLQPEDIATYYCLQSDNLPLTFGGGTKLEIKR" endpoint_value=1.2
binder="h14C05.D humanized IgG4 (S228P) kappa (antibody, V domains shown) VH: QVQLVQSGSELKKPGASVKVSCKASGYTFTNYGMNWVRQAPGQGLEWMGSINTYTGEATYADGFTGRFVFSLDTSVNTAYLQISSLKAEDTAVYYCARGDYYGRGTWFAYWGQGTLVTVSS VL: ETVVTQSPATLSLSPGERATLSCRASQDVSTAVAWYQQKPGQAPRLLIYSASYRYPGIPARFSGSGSGTDFTLTISSLEPEDFAVYYCQQDYSSPWTFGGGTKLEIKR" endpoint_value=0.6

Source listed as patent US20230348603A1.
